Test Name: NCI Yeast Anticancer Drug Screen. Data for the rad52 strain (AID 147);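 note: 0% = growth of vehicle-treated control cultures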
Conditions Used: S. cerevisiae rad52 mutant growth inhibition; at 11.0 µM; active compounds read high
The panel holds about 79,000 compounds, 15% with a hit somewhere; the sample as a whole holds those more often.
The reader will find reported growth inhibition values listed item by item below.
Quantity: growth inhibition (%)

INSERT INTO assay_data (molecule, units_symbol, observed_measurement) VALUES
  ('Nc1ncnc2c1ncn2C1OC(CO)CC1O (stereo not given)', '%', 24),
  ('CC(O)=NC(Cc1ccc2ccccc2c1)C(O)=NC(Cc1ccc(Cl)cc1)C(O)=NC(Cc1c[nH]c2ccccc12)C(O)=NC(CO)C(O)=NC(Cc1ccc(O)cc1)C(O)=NC(CCCN=C(N)N)C(O)=NC(CC(C)C)C(O)=NC(CCCN=C(N)N)C(=O)N1CCCC1C(O)=NC(C)C(=N)O (stereo not given)', '%', -4),
  ('Cc1cc2c3ccccc3c3ccccc3c2nn1', '%', 60),
  ('CCOC(=O)COc1c(OC)cc(C2C3=C(COC3=O)Oc3cc4c(cc32)OCO4)cc1OC (stereo not given)', '%', 0),
  ('C[C](C)(C)[Ge]([O][Ge]([c]1ccccc1)[c]1ccccc1)([O][Ge]([c]1ccccc1)[c]1ccccc1)[C](C)(C)C', '%', 53),
  ('O=C1c2ccccc2C(=O)c2cc(CCl)ccc21', '%', 17),
  ('N/C(=N/N=C/c1cc(Br)cc(Br)c1O)NO', '%', 17),
  ('CC(=O)OC1CC2C(C)(C)C(=O)C=C[C@]2(C)C2CCC3(C)C(=CCC3[C@H](CO)C[C@H](O)C(=O)C(C)(C)O)[C@]12C (stereo not given in full)', '%', -3),
  ('COc1ccc(/C=C2\NC(=S)N(/C=C3\C(=O)Oc4ccccc4C3=O)C2=O)cc1', '%', 3),
  ('Cc1sc2ccc3ccccc3c2[n+]1C', '%', -17);

====

Test Name: NCI Yeast Anticancer Drug Screen. Data for the rad52 strain (AID 147);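 note: 0% = growth of vehicle-treated control cultures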
Conditions Used: S. cerevisiae rad52 mutant growth inhibition; at 11.0 µM
Description: Growth inhibition of yeast strains with defined genetic alterations is measured as a screen for potential anti-cancer activity. Selected strains with alterations in DNA damage repair or cell cycle control were exposed to compounds and growth inhibition was measured relative to vehicle treated controls. The strain used in this assay is rad52
This is part of a sample that, as a whole, favours compounds with a hit. Of some 79,000 tested, about 15% had one in any assay. Active and inactive are the calls of the source. No stated cut-off is given here; in the data, active means growth inhibition above about 70%; inactive means the rest.
Outcomes: active, inactive

INSERT INTO results (compound, qualitative_label) VALUES
  ('CC(C)(C)N=C(NO)c1ccccc1', 'inactive'),
  ('CCC(C)(C)c1ccc(Oc2cccc(C(=O)O)c2)cc1', 'inactive'),
  ('COc1cc2ccnc(-c3c4ccccc4c(N)c4c(OC)c(OC)ccc34)c2cc1OC', 'inactive'),
  ('Cc1cc(C)c(NC(=S)NC(=O)c2ccccc2)cc1C', 'inactive'),
  ('S=C1SCN(C2CCCCC2)CN1C1CCCCC1', 'inactive'),
  ('CN(C)c1ccc2c(SCC(=O)OCC(=O)[C@@]3(O)CC[C@H]4[C@@H]5CCC6=CC(=O)C=C[C@]6(C)[C@H]5C(=O)C[C@@]43C)c3ccc(N(C)C)cc3nc2c1', 'inactive'),
  ('Cc1nc2ccc(N=NN(C)C)cc2[nH]1', 'inactive'),
  ('COC(=O)Nc1cn2ccc(C(Cl)=C(Cl)Cl)cc2n1', 'inactive'),
  ('CN(C)Cc1cc(N=Nc2ccc(Cl)cc2)ccc1OC(=O)c1ccccc1', 'inactive'),
  ('CN(C)N=Nc1ccccc1C(=O)NC#N', 'active'),
  ('CCOC(=O)CC1(C(=O)OCC)c2[nH]c3ccccc3c2CCN1Cc1ccccc1 (centres undefined)', 'inactive'),
  ('C=C1CCC(O)C/C1=C/C=C1\CCCC2(C)C1CCC2C(C)CCCC(C)C (centres undefined)', 'inactive'),
  ('Cc1cccc(/C=N/NC(=S)N2CCCC2)n1', 'inactive'),
  ('CCOC(=O)c1cc([N+](=O)[O-])c(Sc2ncnc3nc[nH]c23)c([N+](=O)[O-])c1', 'inactive'),
  ('CNCCCNc1c2ccccc2nc2cccc([N+](=O)[O-])c12', 'active'),
  ('CN1C(=O)c2ccc3ccccc3c2C1=O', 'inactive'),
  ('CCOC(=O)[C@H]1Nc2ccc(OC)cc2C2c3ccccc3CC21 (some centres undefined)', 'inactive'),
  ('c1ccc2c(OCC3CO3)cccc2c1 (centres undefined)', 'inactive'),
  ('C[C@]12CC[C@H](O)CC1=CC[C@@H]1C2CC[C@]2(C)C(=O)NC(=O)CC12 (some centres undefined)', 'inactive'),
  ('CCCCN(CCCC)C(=O)/C=C/c1ccccc1', 'inactive'),
  ('CCCCCCC(O)CNCc1ccnc2ccc(OC)cc12 (centres undefined)', 'inactive'),
  ('NC(=O)c1c([N+](=O)[O-])cc(C(F)(F)F)cc1[N+](=O)[O-]', 'inactive'),
  ('N#CNC(N)=Nc1cc2ccccc2c2ccccc12', 'active'),
  ('Cc1cccc[n+]1C1CCc2c(ccc3ccccc23)C1=O (centres undefined)', 'inactive');

====

The reader will find reported growth inhibition values listed item by item below.
Test Name: NCI Yeast Anticancer Drug Screen. Data for the mgt1 strain (AID 153)
Conditions Used: S. cerevisiae mgt1 mutant growth inhibition; at 1.2 µM; active compounds read high
The panel holds about 79,000 compounds, 15% with a hit somewhere; the sample as a whole holds those more often.
Quantity: growth inhibition (%)

INSERT INTO measurements (compound, observed_measurement) VALUES
  ('CC(=O)OC1CC2C(C)(C)C(=O)C=C[C@]2(C)C2CCC3(C)C(=CCC3[C@H](CO)C[C@H](O)C(=O)C(C)(C)O)[C@]12C (some centres not stated)', -26),
  ('COc1cccc2c1C(=O)c1c(O)c3c(c(O)c1C2=O)C[C@@](O)(C(C)=O)C[C@@H]3OC1CC(OC(C)=O)C(OC(C)=O)C(C)O1 (some centres not stated)', -41),
  ('CNC(=O)OCc1c(COC(=O)NC)c(-c2ccc(Cl)cc2)n2c1CCC2', -47),
  ('O=C(O)C1CC(c2ccccc2)=NN1c1ccccc1 (configuration not stated)', -48),
  ('COc1ccc(C(NCCNC(c2ccc(OC)c(OC)c2)c2cc3c(cc2O)OCO3)c2cc3c(cc2O)OCO3)cc1OC (configuration not stated)', 2),
  ('CCOC(=O)c1ccc(NC(=O)O/N=C(/Cl)C(C)C)cc1', -3),
  ('O=C(NO)Nc1cc(Cl)cc(Cl)c1', -3),
  ('O=C1C=C(N2CCN(c3ccccn3)CC2)C(=O)c2c(O)ccc(O)c21', 5),
  ('COC(=O)CC1CCc2c(ccc3ccccc23)C1(C)C(=O)OC (configuration not stated)', -3),
  ('Cc1c(C(C)C)cc(OCCO)cc1C(C)C', -4),
  ('CCN(CC)Cc1cc(Nc2c3ccccc3nc3c2[nH]c2ccccc23)cc(CN(CC)CC)c1O', -3),
  ('Oc1ccc(-c2nc(-c3ccc(F)cc3)c(-c3ccc4ccccc4n3)[nH]2)cc1', -28),
  ('O=c1c2ccccc2nc(-c2ccccc2)n1O', 31),
  ('O=C1N=C2SC=C(NC(=S)Nc3ccccc3)N2NC12c1ccccc1-c1ccccc12', 6),
  ('O=C(Oc1ccc2c(c1)CN(Cc1ccccc1)CO2)c1ccccc1', -1),
  ('O=C(c1ccc([N+](=O)[O-])cc1)C1N=NCC1c1ccccc1 (configuration not stated)', -4),
  ('COc1ccc(C(=O)C(CN(C)C)CN(C)C)cc1', -26),
  ('C=C1CC(CCCl)(c2ccccc2)OC1=O (configuration not stated)', -25),
  ('Oc1ccc(O)c(Cc2ccccc2)c1', 4),
  ('COC(=O)/C=C(/CC(=O)OC)C(=O)OC', -3),
  ('O=C1NC(=O)c2ccc([N+](=O)[O-])c3cccc1c23', 11),
  ('CC(=O)OCC(C)Cc1cc2c(cc1Br)OCO2 (configuration not stated)', -3);

====

Test Name: NCI Yeast Anticancer Drug Screen. Data for the mgt1 strain (AID 153)
Conditions Used: S. cerevisiae mgt1 mutant growth inhibition; at 100.0 µM
The panel holds about 79,000 compounds, 15% with a hit somewhere; the sample as a whole holds those more often. Activity calls are given as the source filed them. Rule as the data show it: active = growth inhibition above about 70%; inactive = the rest.
Outcomes: active, inactive

INSERT INTO results (compound, qualitative_label) VALUES
  ('O=C(Nc1ccc(Cl)cc1)Nc1nnc2nc(C(C(=O)c3cccc([N+](=O)[O-])c3Cl)c3nc4nnc(NC(=O)Nc5ccc(Cl)cc5)n4[nH]c3=O)c(=O)[nH]n12', 'inactive'),
  ('CC(C)(CCCCC(C)(C)[N+](C)(C)C)[N+](C)(C)C', 'inactive'),
  ('CNC(=O)OCc1c(COC(=O)NC)c2n(c1C)-c1ccc(OC)cc1CCC2', 'active'),
  ('CCCCN(CCCC)C(=O)/C=C/c1ccccc1', 'inactive'),
  ('C/C=C/SC(=Nc1ccccc1)Nc1ccccc1', 'active'),
  ('S=C1SCN(C2CCCCC2)CN1C1CCCCC1', 'inactive'),
  ('O=C1OC(OC/C(Br)=C(\Br)COC2OC(=O)C(Cl)=C2Cl)C(Cl)=C1Cl (stereo unspecified)', 'inactive'),
  ('C[Si](C)(C)/C=C/CCNC(C#N)c1ccccc1 (stereo unspecified)', 'active'),
  ('CCCCCCSc1ncnc2[nH]ncc12', 'inactive'),
  ('O=C1Nc2ccccc2/C1=C/c1ccccc1', 'active'),
  ('CCc1cc(O)c(Cl)c(C)c1Cl', 'active'),
  ('CCN(CC)CCOc1cc(C)c2cc(Cc3ccccc3)ccc2n1', 'active'),
  ('CCOC(=O)C(C(=O)OCC)=P(c1ccccc1)(c1ccccc1)c1ccccc1', 'active'),
  ('CCOC(=O)COc1c(OC)cc(C2C3=C(COC3=O)Oc3cc4c(cc32)OCO4)cc1OC (stereo unspecified)', 'inactive'),
  ('Cc1cc(N(CCOS(C)(=O)=O)CCOS(C)(=O)=O)ccc1C=Nc1ccc(-c2nc(Cc3ccccc3)sc2C)cc1', 'active'),
  ('OC1(c2ccccc2)CCCc2ccc(Cl)cc21 (stereo unspecified)', 'active'),
  ('COC(=O)/C=C(/CC(=O)OC)C(=O)OC', 'inactive'),
  ('O=C1CC(=O)c2ccccc21', 'active'),
  ('Cc1sc2ccc3ccccc3c2[n+]1C', 'active'),
  ('COc1cccc2c1C(=O)c1c(O)c3c(c(O)c1C2=O)CC(O)(C(O)CO)CC3OC1CC(N2CCOCC2)C(O)C(C)O1 (stereo unspecified)', 'active'),
  ('COC(=O)NC1C(C)OC(OC2C/C=C(/C)C3C=CC4C(OC5CC(OC6CC(O)C(OC7CC(O)C(OC)C(C)O7)C(C)O6)C(O)C(C)O5)C(C)CC(C)C4C3(C)/C(O)=C3\C(=O)OC4(CC(C)C(CO)=CC4/C=C\2C)C3=O)CC1(C)[N+](=O)[O-] (stereo unspecified)', 'inactive');
